# Assay Details: Inhibition constant against peptidyl prolyl isomerase
# Conditions: read-out: Ki app

>  <Compound>
CCOC(=O)C1CCCCN1C(=O)C(=O)c1ccccc1 (stereo not given)

>  <Value Unit>
nM

>  <Ki>
8000

$$$$
>  <Compound>
CCC(C)(C)C(=O)C(=O)N1CCCCC1C(=O)OCCCCc1ccccc1 (stereo not given)

>  <Value Unit>
nM

>  <Ki>
100

$$$$
>  <Compound>
CCC(C)(C)C(=O)C(=O)N1CCCCC1C(=O)OCCCc1ccccc1 (stereo not given)

>  <Value Unit>
nM

>  <Ki>
110

$$$$
>  <Compound>
CCC(C)(C)C(O)C(=O)N1CCCC[C@H]1C(=O)OCCCc1ccccc1 (stereo not given in full)

>  <Value Unit>
nM

>  <Ki>
2300

$$$$
>  <Compound>
CCOC(=O)C1CCCCN1C(=O)C(=O)C(C)C (stereo not given)

>  <Value Unit>
nM

>  <Ki>
6000

$$$$
>  <Compound>
CCC(C)(C)C(=O)C(=O)N1CCCCC1C(=O)OCCCc1ccccc1OC (stereo not given)

>  <Value Unit>
nM

>  <Ki>
60

$$$$
>  <Compound>
CCC(C)(C)C(=O)C(=O)N1CCCCC1C(=O)OCCCc1ccc(OC)cc1 (stereo not given)

>  <Value Unit>
nM

>  <Ki>
70

$$$$
>  <Compound>
CCOC(=O)C1CCCCN1C(=O)C(C)=O (stereo not given)

>  <Value Unit>
nM

>  <Ki>
170000

$$$$
>  <Compound>
CCC(C)(C)C(=O)C(=O)N1CCCCC1C(=O)OCC(C)(C)C (stereo not given)

>  <Value Unit>
nM

>  <Ki>
410

$$$$
>  <Compound>
CCOC(=O)C1CCCCN1C(=O)C(=O)C1=CCCCO1 (stereo not given)

>  <Value Unit>
nM

>  <Ki>
20000

$$$$
>  <Compound>
CCOC(=O)C1CCCCN1C(=O)C(=O)Cc1ccccc1 (stereo not given)

>  <Value Unit>
nM

>  <Ki>
9000

$$$$
>  <Compound>
CCOC(=O)[C@@H]1CCCN1C(=O)C(=O)C1(OC)CCCCC1

>  <Value Unit>
nM

>  <Ki>
8000

$$$$
>  <Compound>
CCOC(=O)C1CCCCN1C(=O)C(=O)N1CCCCC1 (stereo not given)

>  <Value Unit>
nM

>  <Ki>
33000

$$$$
>  <Compound>
CCC(C)(C)C(=O)C(=O)N1CCCCC1C(=O)OCCCc1c[nH]c2ccccc12 (stereo not given)

>  <Value Unit>
nM

>  <Ki>
23

$$$$
>  <Compound>
CO[C@H]1C[C@@H]2CC[C@@H](C)[C@@](O)(O2)C(=O)C(=O)N2CCCC[C@H]2C(=O)O[C@H]([C@H](C)C[C@@H]2CC[C@@H](O)[C@H](OC)C2)CC(=O)[C@H](C)/C=C(\C)[C@@H](O)[C@@H](OC)C(=O)[C@H](C)C[C@H](C)/C=C/C=C/C=C/1C

>  <Value Unit>
nM

>  <Ki>
1000

$$$$
>  <Compound>
CCC(C)(C)C(=O)C(=O)N1CCCCC1C(=O)OCCCc1cccnc1 (stereo not given)

>  <Value Unit>
nM

>  <Ki>
165

$$$$
>  <Compound>
CCC(C)(C)C(=O)C(=O)N1CCCC[C@@H]1C(=O)OC(CCc1ccccc1)C1CCCCC1 (stereo not given in full)

>  <Value Unit>
nM

>  <Ki>
7

$$$$
>  <Compound>
CCC(C)(C)C(=O)C(=O)N1CCCCC1C(=O)OCCCc1ccc(O)cc1 (stereo not given)

>  <Value Unit>
nM

>  <Ki>
95

$$$$
>  <Compound>
CCOC(=O)C1CCCCN1C(=O)C(=O)CC (stereo not given)

>  <Value Unit>
nM

>  <Ki>
50000

$$$$
>  <Compound>
CCC(C)(C)C(=O)C(=O)N1CCCCC1C(=O)OCCc1c[nH]c2ccccc12 (stereo not given)

>  <Value Unit>
nM

>  <Ki>
330

$$$$
>  <Compound>
C=CCN(CC(=O)OCC)C(=O)C(=O)C1(OC)CCCCC1

>  <Value Unit>
nM

>  <Ki>
260000

$$$$
>  <Compound>
CCOC(=O)C1CCCCN1C(=O)C(=O)C(C)(C)CC (stereo not given)

>  <Value Unit>
nM

>  <Ki>
660

$$$$
>  <Compound>
CCC(C)(C)C(=O)C(=O)N1CCCC[C@@H]1C(=O)OC(CCc1cc(OC)c(OC)c(OC)c1)c1ccccc1 (stereo not given in full)

>  <Value Unit>
nM

>  <Ki>
9

$$$$
>  <Compound>
CCC(C)(C)C(=O)C(=O)N1CCCCC1C(=O)OC(CCc1ccccc1)Cc1ccccc1 (stereo not given)

>  <Value Unit>
nM

>  <Ki>
55

$$$$
>  <Compound>
O=C(C(=O)N1CCCC[C@H]1C(=O)OC(CCC1CCCCC1)c1ccccc1)C1CCCCC1 (stereo not given in full)

>  <Value Unit>
nM

>  <Ki>
16000

$$$$
